Source: patent US20200317768A1

Measured Target: T1, Human latent myostatin (human, UniProt O14793 25-266; O14793 267-375)
T1 construct: also called human myostatin latent form
T1 sequence 1: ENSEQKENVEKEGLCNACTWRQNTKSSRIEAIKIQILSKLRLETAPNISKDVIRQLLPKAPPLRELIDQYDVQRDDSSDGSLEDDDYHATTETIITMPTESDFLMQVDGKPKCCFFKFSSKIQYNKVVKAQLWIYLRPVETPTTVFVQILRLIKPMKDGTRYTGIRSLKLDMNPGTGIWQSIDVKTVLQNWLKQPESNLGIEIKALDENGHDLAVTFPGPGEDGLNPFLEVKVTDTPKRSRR
T1 sequence 2: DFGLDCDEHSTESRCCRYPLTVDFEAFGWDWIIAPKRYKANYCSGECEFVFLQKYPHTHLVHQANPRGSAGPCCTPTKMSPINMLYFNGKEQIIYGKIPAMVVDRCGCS
Procedure Text: SPR 37C; KD pH 5.8 / KD pH 7.4
Description: ProA/G (Pierce) was immobilized onto all flow cells of a CM4 chip using an amine coupling kit (GE Healthcare). All antibodies and analytes were prepared in ACES pH7.4 or pH5.8 buffer containing 20 mM ACES, 150 mM NaCl, 1.2 mM CaCl₂, 0.05% TWEEN®) 20, 0.005% NaN₃. […] Binding affinity was determined by processing and fitting the data to a 1:1 binding model using BIACORE® T200 Evaluation software, version 2.0 (GE Healthcare).
Result Type: ratio of KD at pH 5.8/pH 7.4

1) MS_M103205H1057-SG1/M103202L889-SK1 (antibody, human IgG1, kappa, V domains shown, also called MS1032LO12-SG1) VH: QVTLKESGPVLVKPTETLTLTCTVSGIDLSHTDISWVRQAPGKGLEWVGIISYAGSKYKASWAKGRLTISKDTSKNQVVLTMTNMDPVDTATYYCARGVPAYSHGGDLWGQGTLVTVSS VL: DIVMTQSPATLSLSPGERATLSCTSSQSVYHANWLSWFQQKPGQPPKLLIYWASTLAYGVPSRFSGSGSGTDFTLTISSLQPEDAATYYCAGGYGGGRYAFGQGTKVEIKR | 209
